# Tested on: KRAS PDC multicell spheroid viability
# runDescription: Anticancer human tumor 521955-158-R6-J3-PDC patient-derived pancreatic carcinoma cell line growth inhibition [KRAS2]; active = viability on the fitted dose curve at most 10% of control; inactive = the rest
# measurementSetup: second compound 3.16 µM; first compound 0.0316 µM
Lab note: assign the record to one of yes (active), no (inactive)

For COc1cc2nccc(Oc3ccc(NC(=O)C4(C(=O)Nc5ccc(F)cc5)CC4)cc3)c2cc1OC + COc1cc2nc(C)nc(NC(C)c3cc(N)cc(C(F)(F)F)c3)c2cc1OC1CCOC1 , which call appears in the assay record? no

// param item: CC1OCC2(CCN(c3cnc(Sc4ccnc(N)c4Cl)c(N)n3)CC2)C1N (stereo unspecified) + CNCc1ccccc1-c1csc(C(C)Nc2nc(C)nc3cc(OC)c(OC)cc23)c1 ; yields the recorded call yes

Short answer needed: outcome of this test for CC(C)n1nc(-c2ccc3oc(N)nc3c2)c2c(N)ncnc21 + CC1OCC2(CCN(c3cnc(Sc4ccnc(N)c4Cl)c(N)n3)CC2)C1N ? no

Entry CN(C)C/C=C/C(=O)Nc1cc2c(Nc3ccc(F)c(Cl)c3)ncnc2cc1O[C@H]1CCOC1 + CNCc1ccccc1-c1csc(C(C)Nc2nc(C)nc3cc(OC)c(OC)cc23)c1 : call = ? no

Answer briefly: the call reported for O=C(c1cc(Cc2n[nH]c(=O)c3ccccc23)ccc1F)N1CCN(C(=O)C2CC2)CC1 + COc1cc2nc(C)nc(NC(C)c3cc(N)cc(C(F)(F)F)c3)c2cc1OC1CCOC1 in this assay. no

# fetch the recorded call for COc1cc2nccc(Oc3ccc(NC(=O)C4(C(=O)Nc5ccc(F)cc5)CC4)cc3)c2cc1OC + C=CC(=O)N1CCN(c2nc(=O)n(-c3c(C)ccnc3C(C)C)c3nc(-c4c(O)cccc4F)c(F)cc23)C(C)C1 here no

###

# Test system: KRAS PDC multicell spheroid viability
# runDescription: Anticancer human tumor 521955-158-R6-J3-PDC cell line growth inhibition [KRAS2]; active = viability on the fitted dose curve at most 10% of control; inactive = the rest;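 note: drug exposure lasted seven days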
# measurementSetup: second compound 3.16 µM; first compound 0.01 µM
// one of YES for active, NO for inactive, no free text

Example entries begin here.
>>> group("CC1COCCN1c1cc(-c2ccnn2C)c2ccnc(-c3ccn[nH]3)c2n1 (centres undefined) + COc1cc2nc(C)nc(NC(C)c3cc(N)cc(C(F)(F)F)c3)c2cc1OC1CCOC1")
"NO"
>>> group("CC(=O)Nc1cccc(-n2c(=O)n(C3CC3)c(=O)c3c(Nc4ccc(I)cc4F)n(C)c(=O)c(C)c32)c1 + CNCc1ccccc1-c1csc(C(C)Nc2nc(C)nc3cc(OC)c(OC)cc23)c1")
"YES"
>>> group("CC(=O)OC12COC1CC(O)C1(C)C(=O)C(O)C3=C(C)C(OC(=O)C(O)C(NC(=O)OC(C)(C)C)c4ccccc4)CC(O)(C(OC(=O)c4ccccc4)C21)C3(C)C (centres undefined) + C=CC(=O)N1CCN(c2nc(OCC3CCCN3C)nc3c2CCN(c2cccc4cccc(C)c24)C3)CC1CC#N")
"NO"

Fill in: this test's call for CN(C)C/C=C/C(=O)Nc1cc2c(Nc3ccc(F)c(Cl)c3)ncnc2cc1O[C@H]1CCOC1 + COc1cc2nc(C)nc(NC(C)c3cc(N)cc(C(F)(F)F)c3)c2cc1OC1CCOC1 is ___ NO

###

# Tested on: KRAS PDC multicell spheroid viability
# runDescription: Anticancer human tumor 521955-158-R6-J3-PDC cell line growth inhibition [KRAS2];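 note: drug exposure lasted seven days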;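 for viability, T/C: 100% = DMSO vehicle wells and lower means fewer viable cells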
# measurementSetup: second compound 0.316 µM; first compound 0.1 µM; stronger effect = lower value
Please note: viability, T/C exactly at 90% is not fulfilled. Only values below 90% get fulfilled.

>>> group("COC(=O)c1ccc2c(C(=Nc3ccc(N(C)C(=O)CN4CCN(C)CC4)cc3)c3ccccc3)c(O)[nH]c2c1 + CC1OCC2(CCN(c3cnc(Sc4ccnc(N)c4Cl)c(N)n3)CC2)C1N")
"not fulfilled"
>>> group("COc1cc(Nc2ncc3c(n2)-c2ccc(Cl)cc2C(c2c(F)cccc2OC)=NC3)ccc1C(=O)O + C=CC(=O)N1CCN(c2nc(=O)n(-c3c(C)ccnc3C(C)C)c3nc(-c4c(O)cccc4F)c(F)cc23)C(C)C1")
"not fulfilled"
>>> group("CC1(C)CCC(CN2CCN(c3ccc(C(=O)NS(=O)(=O)c4ccc(NCC5CCOCC5)c([N+](=O)[O-])c4)c(Oc4cnc5[nH]ccc5c4)c3)CC2)=C(c2ccc(Cl)cc2)C1 + COc1cc2nc(C)nc(NC(C)c3cc(N)cc(C(F)(F)F)c3)c2cc1OC1CCOC1")
"not fulfilled"
>>> group("CCN1CCN(Cc2ccc(Nc3ncc(F)c(-c4cc(F)c5nc(C)n(C(C)C)c5c4)n3)nc2)CC1 + CC1OCC2(CCN(c3cnc(Sc4ccnc(N)c4Cl)c(N)n3)CC2)C1N")
"fulfilled"

Criterion: viability, T/C strictly below 90%. Is it met by COc1cc2nccc(Oc3ccc(NC(=O)C4(C(=O)Nc5ccc(F)cc5)CC4)cc3)c2cc1OC + C=CC(=O)N1CCN(c2nc(OCC3CCCN3C)nc3c2CCN(c2cccc4cccc(C)c24)C3)CC1CC#N ? not fulfilled

Quick check: viability, T/C of CN(C)C/C=C/C(=O)Nc1cc2c(Nc3ccc(F)c(Cl)c3)ncnc2cc1O[C@H]1CCOC1 + C=CC(=O)N1CCN(c2nc(=O)n(-c3c(C)ccnc3C(C)C)c3nc(-c4c(O)cccc4F)c(F)cc23)C(C)C1 under 90%? fulfilled

Take the compound CC(C)NCC(C(=O)N1CCN(c2ncnc3c2C(C)CC3O)CC1)c1ccc(Cl)cc1 (stereo unspecified) + CC1OCC2(CCN(c3cnc(Sc4ccnc(N)c4Cl)c(N)n3)CC2)C1N and say whether its viability, T/C is less than 90%. fulfilled

Given CCNC(=O)CC1N=C(c2ccc(Cl)cc2)c2cc(OC)ccc2-n2c(C)nnc21 (stereo unspecified) + CNCc1ccccc1-c1csc(C(C)Nc2nc(C)nc3cc(OC)c(OC)cc23)c1 , is recorded viability, T/C strictly lower than 90%? fulfilled

# check: viability, T/C < 90% for CC(C)NCC(C(=O)N1CCN(c2ncnc3c2C(C)CC3O)CC1)c1ccc(Cl)cc1 (stereo unspecified) + C=CC(=O)N1CCN(c2nc(OCC3CCCN3C)nc3c2CCN(c2cccc4cccc(C)c24)C3)CC1CC#N fulfilled

###

Here the recorded IC50 is given for each entry.
# Tested on: KRAS PDC multicell spheroid viability
# runDescription: Anticancer human tumor 521955-158-R6-J3-PDC cell line growth inhibition [KRAS2];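 note: drug exposure lasted seven days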
# measurementSetup: curve of first compound; second compound 10 µM
# Excerpt: Multicellular complex tumor spheroid response to RAS pathway inhibitors in combination with a targeted agents in patient-derived cell lines with oncogenic KRAS variants from multiple cancer types A high-throughput screen of multi-cell type tumor spheroids was designed to identify active combinations of targeted small molecules and KRAS pathway inhibitors. […] Compounds. […] If the clinical Cmax for an agent had not been determined, the highest concentration tested was 10 microM. […]
Unit nM implied. Number only.

>>> reading("CC(C)n1nc(-c2ccc3oc(N)nc3c2)c2c(N)ncnc21 + C=CC(=O)N1CCN(c2nc(=O)n(-c3c(C)ccnc3C(C)C)c3nc(-c4c(O)cccc4F)c(F)cc23)C(C)C1")
84.8

Moving on to another molecule below.
// IC50 value for CC(=O)Nc1cccc(-n2c(=O)n(C3CC3)c(=O)c3c(Nc4ccc(I)cc4F)n(C)c(=O)c(C)c32)c1 + CC1OCC2(CCN(c3cnc(Sc4ccnc(N)c4Cl)c(N)n3)CC2)C1N : 2.24

###

Measured IC50 by item
# Test system: KRAS PDC multicell spheroid viability
# runDescription: Anticancer human tumor 521955-158-R6-J3-PDC cell line growth inhibition [KRAS2];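 note: drug exposure lasted seven days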
# measurementSetup: curve of first compound; second compound 0.1 µM

Some molecules with recorded IC50:
>>> reading("CC(=O)Nc1cccc(-n2c(=O)n(C3CC3)c(=O)c3c(Nc4ccc(I)cc4F)n(C)c(=O)c(C)c32)c1 + COc1cc2nc(C)nc(NC(C)c3cc(N)cc(C(F)(F)F)c3)c2cc1OC1CCOC1")
"0.0167 µM"
>>> reading("CCNC(=O)CC1N=C(c2ccc(Cl)cc2)c2cc(OC)ccc2-n2c(C)nnc21 (stereo unspecified) + CC1OCC2(CCN(c3cnc(Sc4ccnc(N)c4Cl)c(N)n3)CC2)C1N")
"> 10 µM"
>>> reading("O=C(c1cc(Cc2n[nH]c(=O)c3ccccc23)ccc1F)N1CCN(C(=O)C2CC2)CC1 + CNCc1ccccc1-c1csc(C(C)Nc2nc(C)nc3cc(OC)c(OC)cc23)c1")
"> 10 µM"
>>> reading("CC1COCCN1c1cc(-c2ccnn2C)c2ccnc(-c3ccn[nH]3)c2n1 (stereo unspecified) + C=CC(=O)N1CCN(c2nc(=O)n(-c3c(C)ccnc3C(C)C)c3nc(-c4c(O)cccc4F)c(F)cc23)C(C)C1")
"> 3.16 µM"
>>> reading("CC1OCC2(CCN(c3cnc(Sc4ccnc(N)c4Cl)c(N)n3)CC2)C1N (stereo unspecified) + COc1cc2nc(C)nc(NC(C)c3cc(N)cc(C(F)(F)F)c3)c2cc1OC1CCOC1")
"> 10 µM"

// molecule CC1OCC2(CCN(c3cnc(Sc4ccnc(N)c4Cl)c(N)n3)CC2)C1N (stereo unspecified) + CNCc1ccccc1-c1csc(C(C)Nc2nc(C)nc3cc(OC)c(OC)cc23)c1 , assay KRAS PDC multicell spheroid viability, IC50 value: > 10 µM
